- target: catalytic domain of human Bub1 (amino acids 704-1085) (Homo sapiens (Human), UniProt O43683)
pIC50: −log10 of the molar value.
# pIC50 annotations
reported_property: pIC50

>>> measured("OCC(O)COc1cnc(-c2nn(Cc3ccccc3F)c3ccccc23)nc1Nc1ccncc1 (stereo not drawn) [Example 12-1]")
7.96
>>> measured("COc1cnc(-c2nn(Cc3c(Cl)ccc([N+](=O)[O-])c3Cl)c3ccccc23)nc1Nc1ccncc1 [Example 2-44-1]")
7.39
>>> measured("CNC(=O)c1ccc(Cn2nc(-c3ncc(OC)c(Nc4ccncc4)n3)c3ccccc32)c(Cl)c1 [Example 29-2]")
8.05
>>> measured("N#Cc1cnccc1Nc1nc(-c2nn(Cc3ccccc3F)c3ccccc23)ncc1Oc1ccncc1C#N [Example 26-2]")
5.62
>>> measured("CCOc1cc(F)c(Cn2nc(-c3ncc(OCCS(C)(=O)=O)c(Nc4ccncc4)n3)c3ccccc32)c(F)c1 [Example 37-1]")
8.24
>>> measured("CCOc1cc(F)c(Cn2nc(-c3ncc(OC)c(Nc4ccncc4C#N)n3)c3ccccc32)c(F)c1 [Example 24-5]")
7.96
>>> measured("COc1ccc(Cn2nc(-c3ncc(OC)c(Nc4cc[nH]c(=O)c4)n3)c3ccccc32)cc1 [Example 24-7]")
5.92
>>> measured("COc1cnc(-c2nn(Cc3ccc(S(=O)(=O)N4CCOCC4)cc3)c3ccccc23)nc1Nc1ccncc1 [Example 2-43-1]")
5.92
>>> measured("CCOc1cc(F)c(Cn2nc(-c3ncc(OC)c(Nc4ccncc4)n3)c3c(C)cccc32)c(F)c1 [Example 42-1]")
8.17
>>> measured("COc1ccc(Cn2nc(-c3ncc(OC)c(Nc4ccnc(C)c4)n3)c3ccccc32)cc1 [Example 34-4]")
6.92
>>> measured("COc1ccc(Cn2nc(-c3ncc(OC)c(Nc4ccncc4)n3)c3ccccc32)cc1 [Example 2-23-1]")
7.89
>>> measured("COc1cnc(-c2nn(Cc3c(F)cc(F)cc3F)c3ccccc23)nc1Nc1ccncc1 [Example 2-17-1]")
8.06
>>> measured("CCOc1cc(F)c(Cn2nc(-c3ncc(O)c(N(c4ccncc4)C(F)F)n3)c3ccccc32)c(F)c1 [Example 10-3]")
6.44
>>> measured("COc1cnc(-c2nn(Cc3ccc4c(c3)NC(=O)CC4)c3ccccc23)nc1Nc1ccncc1 [Example 2-27-1]")
7.70
>>> measured("CCOc1cc(F)c(Cn2nc(-c3ncc(OC)c(Nc4ccncc4)n3)c3ccccc32)c(F)c1 [Example 2-5-1]")
8.34
>>> measured("COc1cnc(-c2nn(Cc3c(Cl)ccc(OC)c3F)c3ccccc23)nc1Nc1ccncc1 [Example 2-2-1]")
8.59
>>> measured("COc1cnc(-c2nn(Cc3c(Cl)cccc3Cl)c3ccccc23)nc1N(Cc1c(Cl)cccc1Cl)c1ccncc1 [Example 2-9-2]")
6.62
>>> measured("COc1cnc(-c2nn(Cc3c(F)cc(C#N)cc3F)c3ccccc23)nc1Nc1ccncc1 [Example 2-46-1]")
7.80
>>> measured("CCOc1cc(F)c(Cn2nc(-c3ncc(OCCOC)c(Nc4ccncc4)n3)c3ccccc32)c(F)c1 [Example 4-10]")
8.05
>>> measured("COc1cnc(-c2nn(Cc3cccc(-n4cccc4)c3)c3ccccc23)nc1Nc1ccncc1 [Example 2-1-3]")
6.92
>>> measured("COc1cnc(-c2nn(Cc3ccccc3F)c3ccccc23)nc1Nc1ccncc1C#N [Example 24-1]")
7.21
>>> measured("CCOc1cc(F)c(Cn2nc(-c3ncc(OCC4CN(C(=O)OC(C)(C)C)CCO4)c(Nc4ccncc4)n3)c3ccccc32)c(F)c1 (stereo not drawn) [Example 4-11]")
7.62
>>> measured("COc1cnc(-c2nn(Cc3ccc(C)c(F)c3F)c3ccccc23)nc1Nc1ccncc1 [Example 2-8-1]")
8.17
>>> measured("COc1cnc(-c2nn(Cc3cccc(SC(F)(F)F)c3)c3ccccc23)nc1Nc1ccncc1 [Example 2-7-3]")
6.37
>>> measured("CCOc1cc(F)c(Cn2nc(-c3ncc(OC)c(Nc4cc[nH]c(=O)c4)n3)c3ccccc32)c(F)c1 [Example 24-8]")
7.59
>>> measured("Oc1cnc(-c2nn(Cc3ccccc3F)c3ccccc23)nc1Nc1ccncc1 [Example 3-3]")
7.82
>>> measured("COc1cnc(-c2nn(Cc3c(Cl)ccc(C(F)(F)F)c3Cl)c3ccccc23)nc1Nc1ccncc1 [Example 2-34-1]")
7.42
>>> measured("COc1cc(C(F)(F)F)ccc1Cn1nc(-c2ncc(OC)c(Nc3ccncc3)n2)c2ccccc21 [Example 2-47-1]")
5.62
>>> measured("CCOc1cc(F)c(Cn2nc(-c3nccc(N(c4ccncc4)C(F)F)n3)c3ccccc32)c(F)c1 [Example 35-1]")
5.89
>>> measured("COc1cnc(-c2nn(Cc3c(Cl)ccc(NC(C)=O)c3Cl)c3ccccc23)nc1Nc1ccncc1 [Example 41-1]")
7.72

Origin of the recorded values: patent US10266548B2
